system: OVCAR-4 ovarian; test: NCI tumour cell line growth inhibition, 48 h
Provide the reported TGI of each item.

Solved cases below.
* O=C(O[C@@H](/C=C/c1ccccc1)P1(=O)N(Cc2ccccc2)[C@H]2CCCC[C@@H]2N1Cc1ccccc1)c1ccccc1 | > 100 µM
* CN1C(=O)CCC1(O)C1C=CC=CC1 (centres undefined) | > 100 µM
* CC(C)(C)OC(=O)n1c2ccccc2c2c(=O)nc(N3CCCCC3)sc21 | > 100 µM

Turning now to a further record.
Task item: Give me measured TGI, please, for this compound: CCC(C)[C@H]1O[C@]2(CC[C@@H]1C)C[C@@H]1C[C@@H](C/C=C(\C)[C@@H](OC3C[C@H](OC)C(O[C@H]4C[C@H](OC)[C@@H](O)[C@H](C)O4)[C@H](C)O3)[C@@H](C)/C=C/C=C3\CO[C@@H]4[C@H](O)C(C)=C[C@@H](C(=O)O1)[C@]34O)O2 (some centres undefined)
Reply: 10.8 µM
